Tested on: THP-1 cells stably integrating and constitutively expressing ORF9b
assay.remarks: Cytokine quantification (Procartaplex multiplex) in THP-1 cells expressing ORF9b
Type: cell-based
assay.context: 1 µM or 5 µM
experimental.readout: ORF9b-induced release of IL-1β

| compound | measurement |
| --- | --- |
| Nc1ccc(F)c(NC(=O)c2cccc3ccccc23)c1 [Compound 2, N-(5-Amino-2-fluorophenyl)-1-naphthamide] | inhibited |
| Nc1ccc(F)c(NC(=O)Cc2ccccc2)c1 | inhibited |
| O=C(Cc1ccc(Cl)cc1)Nc1cc([N+](=O)[O-])ccc1F | inhibited |
